meta.source: PubChem BioAssay

ASSAY PROTOCOL: probe aLefty2 binding to arrayed compounds – biochemical, biotinylated probe, 635/667 nm fluorescence, primary screen (AID 1094);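 note: score merges spot fluorescence near 667 nm with spot signal-to-noise ratio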
CONDITION DESCRIPTION: small-molecule microarray, higher = more signal
PROPERTY LABEL: composite z-score
# print the numeric value only

GET /value?item= `O=C(NCc1ccccc1)[C@@H]1c2ccccc2C(=O)N(C2CCCCC2)[C@H]1c1ccc(CO)cc1` &field=composite z-score returns -0.322

GET /value?item= `CCCC[C@@H]1C[C@H]1[C@@H](NC(=O)c1ccco1)c1ccccc1` &field=composite z-score returns -0.121

GET /value?item= [N-]=[N+]=NCc1ccccc1[C@H]1OC(c2ccc(OCCCO)cc2)=N[C@@]1(Cc1ccccc1)C(=O)NCC(O)CO (stereo partly drawn) &field=composite z-score returns 0.102

GET /value?item= `CCCCC(=O)N(Cc1ccccc1F)[C@@H]1CC(C(=O)NCCO)=C[C@H](Oc2c(I)cc(CO)cc2OC)[C@H]1O` &field=composite z-score returns -0.0718

GET /value?item= `CCOC(=O)C1=CC[C@@H](c2ccccc2)N(S(=O)(=O)c2ccc(C)cc2)[C@H]1c1ccc(C#N)cc1` &field=composite z-score returns 0.0163

GET /value?item= `CN(C)CCCCCCNC(=O)[C@@H]1C[C@@H]2C(=O)N[C@@H](Cc3ccccc3)C(=O)N2[C@@H]1c1cccc(OCCO)c1` &field=composite z-score returns 0.0498

GET /value?item= CN1C(=O)C2C=CC(C(O)C=Cc3ccc([N+](=O)[O-])cc3)N(N3CCCCC3)C2C1=O (stereo not drawn) &field=composite z-score returns 0.859

GET /value?item= Cn1c2c(c3ccccc31)C(=O)C1NC2C=CC1(C)C(=O)OCc1ccccc1 (stereo not drawn) &field=composite z-score returns -0.0097

----------
ASSAY PROTOCOL: small molecules captured by biotinylated probe aFGF10 – biochemical, small-molecule microarray, fluorescence 635/667, stem cell growth factor project, primary screen (AID 1071);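 note: score merges 667 nm spot intensity and signal to noise from triplicate slides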
CONDITION DESCRIPTION: higher = more signal
PROPERTY LABEL: composite z-score
# print the numeric value only

GET /value?item= `CN(C)CCCC[C@@H]1NC(=O)[C@@H]2C[C@H](C(=O)NCCCCCN)[C@H](c3ccc(O)cc3)N2C1=O` &field=composite z-score returns -0.285

GET /value?item= `C=C[C@H](C)[C@H](OC(=O)Nc1ccc(OC)cc1)c1ccc(O)c2ccccc12` &field=composite z-score returns -0.148

GET /value?item= `COC(=O)[C@@]1(Cc2ccc(F)cc2)[C@H]2c3cc(C(=O)N4CCCC4)n(Cc4ccc(Cl)c(C(F)(F)F)c4)c3C[C@H]2CN1C(=O)c1ccccc1` &field=composite z-score returns 1.04

GET /value?item= `COc1ccc(CCNC(=O)[C@@]2(C)c3ccccc3C(=O)N(Cc3ccccc3)[C@H]2c2ccc(CO)cc2)cc1` &field=composite z-score returns 0.299

GET /value?item= `C=C(CCCC)C(=O)CC[C@@H](OC(=O)c1ccccc1-c1ccccc1C(=O)O)c1ccc(CO)o1` &field=composite z-score returns 0.45

GET /value?item= CN1C(=O)C2C=CC(C(O)C3=C[C@H]4C[C@@H](C3)C4(C)C)N(Nc3ccc([N+](=O)[O-])cc3[N+](=O)[O-])C2C1=O (stereo not given in full) &field=composite z-score returns 0.733

GET /value?item= C=CCC(OC(C)=O)[C@@H]1[C@@H](N(Cc2cc3ccccc3o2)C(=O)c2cccc3ccccc23)c2cc(OCCCO)ccc2N1C(=O)Cc1ccc2ccccc2c1 (stereo not given in full) &field=composite z-score returns 0.0537

GET /value?item= `O=c1cccc(-c2ccccc2)o1` &field=composite z-score returns 0.062

GET /value?item= `COC(=O)[C@@]1(Cc2ccc(F)cc2)[C@H]2c3cc(C(=O)N(C)C)n(CCCNc4ccc(C(F)(F)F)cc4Cl)c3C[C@H]2CN1C(=O)c1ccccc1` &field=composite z-score returns 0.754

GET /value?item= `O=C1O[C@@H](c2ccccc2)[C@@H](c2ccccc2)N2[C@@H](c3ccc(O)cc3)[C@]3(C(=O)Nc4ccc(C#CCCO)cc43)[C@@H](C(=O)N3CCCCCCC3)[C@H]12` &field=composite z-score returns 0.888

GET /value?item= O=C1C2C=CC(C(O)c3ccc(B(O)O)cc3)N(Nc3ccc([N+](=O)[O-])cc3)C2C(=O)N1c1ccccc1 (stereo not given) &field=composite z-score returns 0.84

GET /value?item= `C=C(COC)C(=O)CC[C@@H](OC(=O)c1ccccc1-c1ccccc1C(=O)O)c1ccc(CO)o1` &field=composite z-score returns -0.177

GET /value?item= CS(=O)(=O)CCOC(=O)C1=CC(c2ccc(CO)cc2)=CC(c2cccs2)N(Cc2cccc(OC(F)(F)F)c2)C=C1C(=O)OCCS(C)(=O)=O (stereo not given) &field=composite z-score returns 0.708

GET /value?item= `CC(C)NC(=O)[C@@H]1c2ccccc2C(=O)N(C2CCCCC2)[C@H]1c1ccc(CO)cc1` &field=composite z-score returns 0.74

GET /value?item= `CC(C)CNC(=O)[C@@]1(C)c2ccccc2C(=O)N(C(C)C)[C@H]1c1ccc(CO)cc1` &field=composite z-score returns -0.435

----------
TARGET SYSTEM: Carbonic anhydrase 2 (Homo sapiens)
ASSAY PROTOCOL: compounds binding carbonic anhydrase 2 – biochemical, small-molecule microarray, Alexa647-labelled CAII, profiling panel (AID 1122)
CONDITION DESCRIPTION: CAII-A647 binding fluorescence, higher = more signal
Think of 0.5 as a floor: if composite z-score stands on it or above, it is true; beneath it, false.

INPUT: Kindly determine if composite z-score recorded for `O=C(CS)NCCCCCNC(=O)[C@H]1C[C@H]2C(=O)N[C@@H](Cc3ccccc3)C(=O)N2[C@H]1c1cccc(OCCO)c1` is above or exactly 0.5.
OUTPUT: false

INPUT: Kindly determine if composite z-score recorded for `[N-]=[N+]=NCc1ccccc1C[C@]1(C(=O)NCc2ccccc2)COC(c2ccc(OCCCO)cc2)=N1` is above or exactly 0.5.
OUTPUT: true

INPUT: Kindly determine if composite z-score recorded for `CCOC(=O)C[C@H]1[C@H](OC(=O)c2cc3ccccc3oc2=O)[C@@H](NC(=O)c2ccc3ccccc3c2)c2cc(OCCCO)ccc2N1C(=O)c1ccccc1` is above or exactly 0.5.
OUTPUT: true

INPUT: Kindly determine if composite z-score recorded for `Cc1cccc(/C=C/C=O)c1` is above or exactly 0.5.
OUTPUT: false

INPUT: Kindly determine if composite z-score recorded for O=C1C2C=CC(C(O)c3ccc(-c4ccccc4)s3)N(Nc3ccccc3F)C2C(=O)N1c1ccccc1 (stereo not drawn) is above or exactly 0.5.
OUTPUT: true

INPUT: Kindly determine if composite z-score recorded for `COc1ccc([Si](C)(C)[C@H]2[C@H](CCO)O[C@@]3(C(=O)N(Cc4cccc(N5C(=O)c6cccc7cccc5c67)c4)c4ccccc43)[C@@H]2C)cc1` is above or exactly 0.5.
OUTPUT: false

INPUT: Kindly determine if composite z-score recorded for `CN(C)CCCC[C@@H]1NC(=O)[C@@H]2C[C@H](C(=O)NCc3ccc(F)cc3)[C@H](c3cccc(OCCO)c3)N2C1=O` is above or exactly 0.5.
OUTPUT: true

INPUT: Kindly determine if composite z-score recorded for `C=CCOC(=O)[C@@H]1[C@H]2C(=O)O[C@H](c3ccccc3)[C@H](c3ccccc3)N2[C@H](c2ccc(OCCOC(=O)[C@H]3C[C@H]4C(=O)N[C@@H](CCCC[N+](C)(C)C)C(=O)N4[C@H]3c3cccc(OCCO)c3)cc2)[C@@]12C(=O)Nc1ccc(I)cc12` is above or exactly 0.5.
OUTPUT: false

INPUT: Kindly determine if composite z-score recorded for `O=C1O[C@@H](c2ccccc2)[C@@H](c2ccccc2)N2[C@@H](c3ccc(O)cc3)[C@]3(C(=O)Nc4ccccc43)[C@@H](C(=O)N3CCCCCCC3)[C@H]12` is above or exactly 0.5.
OUTPUT: true

INPUT: Kindly determine if composite z-score recorded for CCN(CC)c1ccc(N2CC=CC34O[C@@H]5C=CCOC(=O)[C@@H]5[C@H]3C(=O)N(CCCCCO)[C@@H]4C2=O)cc1 (stereo partly drawn) is above or exactly 0.5.
OUTPUT: true

INPUT: Kindly determine if composite z-score recorded for Cc1cc(C)c(C(O)C2C=CC3C(=O)NC(=O)C3N2Nc2ccccn2)c(C)c1 (stereo not drawn) is above or exactly 0.5.
OUTPUT: false

INPUT: Kindly determine if composite z-score recorded for `COCCOC(=O)N1C(=O)[C@@]2(c3cc(C#Cc4ccc(OC)cc4)ccc31)[C@H](c1ccc(OCCO)cc1)N1[C@H](c3ccccc3)[C@H](c3ccccc3)OC(=O)[C@H]1[C@@H]2C(=O)N1CCc2cc(OC)c(OC)cc2C1` is above or exactly 0.5.
OUTPUT: false
